Target: Neu5Ac(a2-3)Gal(b1-3)GlcNAc6S
Assay: glycan array binding signal (z-score within array); higher = stronger binding
Conditions: glycan notation: IUPAC condensed, linker removed
Many of the other results were omitted from the sample, so the strongest signals are more common in it than they were.
This listing pairs binders with measured glycan array binding signal (z-score).
Property: glycan array binding signal (z-score)

| Binder | Endpoint value |
| --- | --- |
| CBP21 (Serratia marcescens), O83009 (protein) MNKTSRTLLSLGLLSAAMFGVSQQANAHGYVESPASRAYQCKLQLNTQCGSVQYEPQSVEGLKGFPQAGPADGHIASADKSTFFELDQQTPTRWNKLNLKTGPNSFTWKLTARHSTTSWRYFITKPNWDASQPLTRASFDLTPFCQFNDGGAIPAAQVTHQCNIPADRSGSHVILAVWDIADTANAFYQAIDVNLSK | -0.561 |
| PLU (Photorhabdus luminiscence) (protein) HHHHHHENLYFQSSIVFASIDPRSNPLQTSSQNYVDIPGLKLDVSKYSNSPCLTALITLNIPTPYASGNNFPGGNFAIVTDQGEQLAYGGFTYSSKIPENSGRMPFTLVARYSLASNVSTIKAQWSNIRGSTVHIDSYASISAVIQCNQLV | -0.277 |
| Pbx1CASH domain (Cryptococcus neoformans) (protein) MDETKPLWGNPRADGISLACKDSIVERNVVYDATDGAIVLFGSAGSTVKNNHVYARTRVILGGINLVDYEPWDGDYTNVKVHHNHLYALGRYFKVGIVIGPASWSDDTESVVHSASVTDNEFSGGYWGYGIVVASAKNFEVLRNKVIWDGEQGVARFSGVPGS | 0.698 |
| Spy 2007 (Streptococcus pyogenes), Q99XV3 (protein) MKKGFFLMAMVVSLVMIAGCDKSANPKQPTQGMSVVTSFYPMYAMTKEVSGDLNDVRMIQSGAGIHSFEPSVNDVAAIYDADLFVYHSHTLEAWARDLDPNLKKSKVDVFEASKPLTLDRVKGLEDMEVTQGIDPATLYDPHTWTDPVLAGEEAVNIAKELGRLDPKHKDSYTKNAKAFKKEAEQLTEEYTQKFKKVRSKTFVTQHTAFSYLAKRFGLKQLGISGISPEQEPSPRQLKEIQDFVKEYNVKTIFAEDNVNPKIAHAIAKSTGAKVKTLSPLEAAPSGNKTYLENLRANLEVLYQQLK | -0.663 |
| Galatrox (Botrops atrox), P0DM53 (protein) NNCPQDWLPMNGLCYKIFDELKAWKDAEMFCRKYKPGCHLASIILYGESPEWAEGHSEVWLGLWDKKKDFSWEWTDR | -0.36 |
